- system: UniProt P27487
- test-description: DPP4 activity assay (DPP4 inhibitor screening assay kit, Cayman)
- Format: biochemical
- Parameters: purchased Cayman Chemical, Ann Arbor, MI, USA
- measurement-conditions: 10 µM; control mean 100.0; Figure 1A raw data
Entry flag: Satisfied if DPP4 activity in library screen, Exp 3 reaches 90; Not satisfied if it does not.

{"compound": "C=C1C(=O)O[C@H]2[C@H]1CC/C(C)=C/CC[C@@]1(C)O[C@@H]21 [(-)-Parthenolide]", "system": "UniProt P27487", "assigned-label": "Satisfied"}
{"compound": "COc1ccc([C@@H]2CC(=O)c3c(O)cc(O[C@@H]4O[C@H](CO)[C@@H](O)[C@H](O)[C@H]4O[C@@H]4O[C@@H](C)[C@H](O)[C@@H](O)[C@H]4O)cc3O2)cc1O", "system": "UniProt P27487", "assigned-label": "Not satisfied"}
{"compound": "Cl.N=c1ccn2c(n1)O[C@H]1[C@H](O)[C@@H](CO)O[C@H]12 [Cyclocytidine HCl]", "system": "UniProt P27487", "assigned-label": "Satisfied"}
{"compound": "COc1ccc(-c2coc3cc(O)cc(O)c3c2=O)cc1", "system": "UniProt P27487", "assigned-label": "Not satisfied"}
{"compound": "COc1ccc2cc3[n+](cc2c1OC)CCc1cc2c(cc1-3)OCO2.[Cl-] [Berberine HCl]", "system": "UniProt P27487", "assigned-label": "Not satisfied"}
{"compound": "CC(C)(O)[C@H]1CC[C@@](C)([C@H]2[C@@H](O)C[C@@]3(C)[C@@H]4C[C@H](O[C@@H]5O[C@H](CO)[C@@H](O)[C@H](O)[C@H]5O)[C@H]5C(C)(C)[C@@H](O[C@@H]6OC[C@@H](O)[C@H](O)[C@H]6O)CC[C@@]56C[C@@]46CC[C@]23C)O1 [Astragaloside A]", "system": "UniProt P27487", "assigned-label": "Satisfied"}

###

- system: DPP4 (Homo sapiens)
- test-description: DPP4 activity assay (DPP4 inhibitor screening assay kit, Cayman)
- Type: biochemical
- Parameters: purchased Cayman Chemical, Ann Arbor, MI, USA
- measurement-conditions: 0.5 h, 10 µM; control mean 100.0; Figure 1A raw data; read-out: DPP4 activity in library screen, Exp 3
remaining activity at 10 µM less than 70% is yes; remaining activity at 10 µM greater than or equal to 70% is no.

{"compound": "Cc1coc2c1C(=O)C(=O)c1c-2ccc2c(C)cccc12", "system": "DPP4 (Homo sapiens)", "assigned-label": "yes"}
{"compound": "COc1cc(C2Oc3cc([C@H]4Oc5cc(O)cc(O)c5C(=O)[C@@H]4O)ccc3OC2CO)ccc1O (stereo partly shown)", "system": "DPP4 (Homo sapiens)", "assigned-label": "yes"}
{"compound": "O=C1C=CC[C@@H]2[C@H]3CCCN4CCC[C@@H](CN12)[C@@H]34", "system": "DPP4 (Homo sapiens)", "assigned-label": "no"}
{"compound": "O=c1c(O)c(-c2ccc(O)c(O)c2)oc2cc(O)ccc12", "system": "DPP4 (Homo sapiens)", "assigned-label": "yes"}
{"compound": "O=c1cc(-c2ccc(O)cc2)oc2cc(O)cc(O)c12", "system": "DPP4 (Homo sapiens)", "assigned-label": "yes"}

###

Reported values of DPP4 activity in library screen, Exp 2 for individual entries
- system: DPP4 (Homo sapiens, UniProt P27487)
- Sequence (P27487 whole entry): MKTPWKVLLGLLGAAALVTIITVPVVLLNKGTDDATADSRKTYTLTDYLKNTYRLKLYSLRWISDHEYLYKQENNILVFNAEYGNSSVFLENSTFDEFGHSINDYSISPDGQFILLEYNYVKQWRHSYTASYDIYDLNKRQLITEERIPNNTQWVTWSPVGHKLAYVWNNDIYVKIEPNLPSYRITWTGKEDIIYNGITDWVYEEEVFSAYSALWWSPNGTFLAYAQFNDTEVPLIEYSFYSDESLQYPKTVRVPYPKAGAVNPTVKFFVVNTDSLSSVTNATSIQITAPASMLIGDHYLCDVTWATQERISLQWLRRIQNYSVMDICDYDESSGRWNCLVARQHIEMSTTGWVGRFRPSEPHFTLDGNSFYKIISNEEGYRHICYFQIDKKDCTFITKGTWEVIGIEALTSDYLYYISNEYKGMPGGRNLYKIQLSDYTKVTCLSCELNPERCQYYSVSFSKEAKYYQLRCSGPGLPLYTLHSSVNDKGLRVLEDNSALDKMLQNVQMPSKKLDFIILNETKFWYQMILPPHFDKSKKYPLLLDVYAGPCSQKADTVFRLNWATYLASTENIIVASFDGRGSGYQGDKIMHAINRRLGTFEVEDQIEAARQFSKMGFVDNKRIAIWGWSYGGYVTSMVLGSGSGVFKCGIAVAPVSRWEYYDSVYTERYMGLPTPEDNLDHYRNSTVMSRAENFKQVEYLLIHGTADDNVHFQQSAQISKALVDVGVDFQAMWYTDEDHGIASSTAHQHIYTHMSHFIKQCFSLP
- test-description: DPP4 activity assay (DPP4 inhibitor screening assay kit, Cayman);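 further: fluorescence read at excitation 360 nm and emission 460 nm after the enzyme reaction ran 30 min at 37 °C in a 96-well plate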
- Assay type: biochemical
- Set-up: purchased Cayman Chemical, Ann Arbor, MI, USA
- measurement-conditions: 10 µM; control mean 100.0; Figure 1A raw data
recorded-metric: DPP4 activity in library screen, Exp 2

{"compound": "O.O=c1c(O)c(-c2ccc(O)cc2O)oc2cc(O)cc(O)c12 [Morin Hydrate]", "val": 73.7}
{"compound": "CC(C)(O)[C@H]1CC[C@@](C)([C@H]2[C@@H](O)C[C@@]3(C)[C@@H]4C[C@H](O[C@@H]5O[C@H](CO)[C@@H](O)[C@H](O)[C@H]5O)[C@H]5C(C)(C)[C@@H](O[C@@H]6OC[C@@H](O)[C@H](O)[C@H]6O)CC[C@@]56C[C@@]46CC[C@]23C)O1 [Astragaloside A]", "val": 108.8}
{"compound": "C[C@@H]1O[C@@H](O)[C@H](O)[C@H](O)[C@H]1O.O [L-(+)-Rhamnose Monohydrate]", "val": 91.1}

###

- system: DPP4 (Homo sapiens)
- test-description: DPP4 activity assay (DPP4 inhibitor screening assay kit, Cayman)
- Assay type: biochemical
- Set-up: purchased Cayman Chemical, Ann Arbor, MI, USA
- measurement-conditions: 0.5 h, 10 µM; control mean 100.0; Figure 1A raw data; read-out: DPP4 activity in library screen, Exp 2

{"molecule": "OCc1ccc(O[C@@H]2O[C@H](CO)[C@@H](O)[C@H](O)[C@H]2O)cc1 [Gastrodin]", "remaining activity at 10 µM / %": 91.5}
{"molecule": "Cc1c(C(=O)NCCO)[n+]([O-])c2ccccc2[n+]1[O-] [Olaquindox]", "remaining activity at 10 µM / %": 99.1}
{"molecule": "C=C1CC[C@@H]2[C@](C)(CO)[C@H](O)CC[C@@]2(C)[C@@H]1C/C=C1/C(=O)OC[C@H]1O [Andrographolide]", "remaining activity at 10 µM / %": 100}
{"molecule": "COc1ccc(-c2cc(=O)c3c(O)cc(O)cc3o2)cc1O [Diosmetin]", "remaining activity at 10 µM / %": 77.5}
{"molecule": "O=c1c2ccccc2nc2n1CCc1c-2[nH]c2ccccc12 [Rutaecarpine]", "remaining activity at 10 µM / %": 78.6}
{"molecule": "O=C1c2c(O)cc(O)cc2O[C@H](c2cc(O)c(O)c(O)c2)[C@H]1O [Dihydromyricetin]", "remaining activity at 10 µM / %": 88.8}
{"molecule": "COc1ccc(CCC(=O)c2c(O)cc(O[C@@H]3O[C@H](CO)[C@@H](O)[C@H](O)[C@H]3O[C@@H]3O[C@@H](C)[C@H](O)[C@@H](O)[C@H]3O)cc2O)cc1O [Neohesperidin dihydrochalcone (Nhdc), Neohesperidin dihydrochalcone]", "remaining activity at 10 µM / %": 78}
{"molecule": "CC(C)Oc1ccc2c(=O)c(-c3ccccc3)coc2c1 [Ipriflavone (Osteofix), Ipriflavone]", "remaining activity at 10 µM / %": 99.7}
{"molecule": "C=C[C@H]1CN2CC[C@H]1C[C@H]2[C@H](O)c1ccnc2ccccc12 [Cinchonidine]", "remaining activity at 10 µM / %": 97.4}
{"molecule": "C[C@H]1[C@H](C)CC[C@]2(C(=O)O)CC[C@]3(C)C(=CC[C@@H]4[C@@]5(C)C[C@@H](O)[C@H](O)[C@@](C)(CO)[C@@H]5CC[C@]43C)[C@H]12 [Asiatic Acid]", "remaining activity at 10 µM / %": 65.3}
{"molecule": "O=C(CCc1ccc(O)cc1)c1c(O)cc(O)cc1O[C@@H]1O[C@H](CO)[C@@H](O)[C@H](O)[C@H]1O [Phlorizin]", "remaining activity at 10 µM / %": 86.5}
{"molecule": "Cc1coc2c1C(=O)C(=O)c1c-2ccc2c1CCCC2(C)C [Tanshinone IIA]", "remaining activity at 10 µM / %": 56.6}
{"molecule": "O=c1c(O)c(-c2ccc(O)c(O)c2)oc2cc(O)cc(O)c12 [Quercetin]", "remaining activity at 10 µM / %": 62.1}
{"molecule": "O=C(O)[C@H]1O[C@@H](Oc2cc3oc(-c4ccccc4)cc(=O)c3c(O)c2O)[C@H](O)[C@@H](O)[C@@H]1O [Baicalin]", "remaining activity at 10 µM / %": 51.3}
{"molecule": "C=C[C@](C)(O)CC[C@@H]1[C@@]2(C)CCCC(C)(C)[C@@H]2CC[C@@]1(C)O [Sclareol]", "remaining activity at 10 µM / %": 99.9}

###

Reported values of remaining activity at 10 µM for individual entries
- system: DPP4 (Homo sapiens)
- test-description: DPP4 activity assay (DPP4 inhibitor screening assay kit, Cayman)
- Format: biochemical
- Design: purchased Cayman Chemical, Ann Arbor, MI, USA
- measurement-conditions: 0.5 h, 10 µM; control mean 100.0; Figure 1A raw data; read-out: DPP4 activity in library screen, Exp 3
recorded-metric: remaining activity at 10 µM (%)

{"compound": "C[C@H](CCC(=O)O)[C@H]1CC[C@H]2[C@@H]3C[C@H](O)[C@@H]4C[C@H](O)CC[C@]4(C)[C@H]3CC[C@]12C", "value-unit": "%", "val": 96.2}
{"compound": "COc1ccc(CCC(=O)c2c(O)cc(O[C@@H]3O[C@H](CO)[C@@H](O)[C@H](O)[C@H]3O[C@@H]3O[C@@H](C)[C@H](O)[C@@H](O)[C@H]3O)cc2O)cc1O [Neohesperidin dihydrochalcone (Nhdc), Neohesperidin dihydrochalcone]", "value-unit": "%", "val": 91.2}
{"compound": "C[C@H]1CC[C@]2(NC1)O[C@H]1C[C@H]3[C@@H]4CC[C@H]5C[C@@H](O[C@@H]6O[C@H](CO)[C@H](O[C@@H]7O[C@H](CO)[C@@H](O)[C@H](O[C@@H]8OC[C@@H](O)[C@H](O)[C@H]8O)[C@H]7O[C@@H]7O[C@H](CO)[C@@H](O)[C@H](O)[C@H]7O)[C@H](O)[C@H]6O)CC[C@]5(C)[C@H]4CC[C@]3(C)[C@H]1[C@@H]2C", "value-unit": "%", "val": 124}
{"compound": "COc1ccc(C(C)=O)c(O)c1", "value-unit": "%", "val": 99.9}
{"compound": "C=C1CC[C@@H]2[C@](C)(CO)[C@H](O)CC[C@@]2(C)[C@@H]1C/C=C1/C(=O)OC[C@H]1O [Andrographolide]", "value-unit": "%", "val": 96.8}
{"compound": "O=C1Nc2ccccc2/C1=C1/Nc2ccccc2C1=O", "value-unit": "%", "val": 61.7}
{"compound": "COc1cc(C=O)ccc1O", "value-unit": "%", "val": 51.5}
{"compound": "O=C(O)c1cc(=O)[nH]c(=O)[nH]1", "value-unit": "%", "val": 95.5}
{"compound": "CCn1cc(C(=O)O)c(=O)c2ccc(C)nc21", "value-unit": "%", "val": 93.5}
{"compound": "CNCC(O)c1ccc(O)cc1 (stereo not shown) [Synephrine]", "value-unit": "%", "val": 87.7}
{"compound": "COc1ccc(-c2cc(=O)c3c(O)cc(O[C@@H]4O[C@H](CO[C@@H]5O[C@@H](C)[C@H](O)[C@@H](O)[C@H]5O)[C@@H](O)[C@H](O)[C@H]4O)cc3o2)cc1O", "value-unit": "%", "val": 74.6}
{"compound": "CC1(C)[C@@H](O)CC[C@]2(C)[C@H]3C(=O)C=C4[C@@H]5C[C@@](C)(C(=O)O)CC[C@]5(C)CC[C@@]4(C)[C@]3(C)CC[C@@H]12", "value-unit": "%", "val": 95.5}
{"compound": "COc1ccc(-c2cc(=O)c3c(O)cc(O)cc3o2)cc1O", "value-unit": "%", "val": 77.6}
